# measurement-target: ITK (Homo sapiens (Human))
# Sequence (Q08881 whole entry, species assumed): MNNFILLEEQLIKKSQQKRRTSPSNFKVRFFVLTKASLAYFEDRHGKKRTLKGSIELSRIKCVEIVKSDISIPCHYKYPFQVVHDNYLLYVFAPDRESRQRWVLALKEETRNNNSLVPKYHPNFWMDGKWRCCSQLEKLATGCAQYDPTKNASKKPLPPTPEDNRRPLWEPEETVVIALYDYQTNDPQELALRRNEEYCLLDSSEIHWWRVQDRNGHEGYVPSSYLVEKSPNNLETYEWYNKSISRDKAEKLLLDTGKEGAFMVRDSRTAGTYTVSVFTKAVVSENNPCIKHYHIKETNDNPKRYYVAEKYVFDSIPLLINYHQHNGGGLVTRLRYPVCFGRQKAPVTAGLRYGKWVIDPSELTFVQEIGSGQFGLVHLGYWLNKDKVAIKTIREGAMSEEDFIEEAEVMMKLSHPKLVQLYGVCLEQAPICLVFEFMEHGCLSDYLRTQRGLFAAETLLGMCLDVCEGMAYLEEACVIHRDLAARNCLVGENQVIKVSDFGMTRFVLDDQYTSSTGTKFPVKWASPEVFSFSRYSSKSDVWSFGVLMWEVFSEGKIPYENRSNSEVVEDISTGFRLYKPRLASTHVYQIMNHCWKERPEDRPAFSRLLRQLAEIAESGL
observable: IC50 (nM)
Quick reminder: number only, in nM, skip the unit.

What does the data say about its IC50? Entry: C=CC(=O)N(C)c1cc(Nc2ncc(Cl)c(NCCCNC(=O)c3ccc(C#N)cc3)n2)ccc1F [Example 7] 319

---

# measurement-target: JAK3 (Homo sapiens (Human), UniProt P52333)
# Sequence (P52333 whole entry): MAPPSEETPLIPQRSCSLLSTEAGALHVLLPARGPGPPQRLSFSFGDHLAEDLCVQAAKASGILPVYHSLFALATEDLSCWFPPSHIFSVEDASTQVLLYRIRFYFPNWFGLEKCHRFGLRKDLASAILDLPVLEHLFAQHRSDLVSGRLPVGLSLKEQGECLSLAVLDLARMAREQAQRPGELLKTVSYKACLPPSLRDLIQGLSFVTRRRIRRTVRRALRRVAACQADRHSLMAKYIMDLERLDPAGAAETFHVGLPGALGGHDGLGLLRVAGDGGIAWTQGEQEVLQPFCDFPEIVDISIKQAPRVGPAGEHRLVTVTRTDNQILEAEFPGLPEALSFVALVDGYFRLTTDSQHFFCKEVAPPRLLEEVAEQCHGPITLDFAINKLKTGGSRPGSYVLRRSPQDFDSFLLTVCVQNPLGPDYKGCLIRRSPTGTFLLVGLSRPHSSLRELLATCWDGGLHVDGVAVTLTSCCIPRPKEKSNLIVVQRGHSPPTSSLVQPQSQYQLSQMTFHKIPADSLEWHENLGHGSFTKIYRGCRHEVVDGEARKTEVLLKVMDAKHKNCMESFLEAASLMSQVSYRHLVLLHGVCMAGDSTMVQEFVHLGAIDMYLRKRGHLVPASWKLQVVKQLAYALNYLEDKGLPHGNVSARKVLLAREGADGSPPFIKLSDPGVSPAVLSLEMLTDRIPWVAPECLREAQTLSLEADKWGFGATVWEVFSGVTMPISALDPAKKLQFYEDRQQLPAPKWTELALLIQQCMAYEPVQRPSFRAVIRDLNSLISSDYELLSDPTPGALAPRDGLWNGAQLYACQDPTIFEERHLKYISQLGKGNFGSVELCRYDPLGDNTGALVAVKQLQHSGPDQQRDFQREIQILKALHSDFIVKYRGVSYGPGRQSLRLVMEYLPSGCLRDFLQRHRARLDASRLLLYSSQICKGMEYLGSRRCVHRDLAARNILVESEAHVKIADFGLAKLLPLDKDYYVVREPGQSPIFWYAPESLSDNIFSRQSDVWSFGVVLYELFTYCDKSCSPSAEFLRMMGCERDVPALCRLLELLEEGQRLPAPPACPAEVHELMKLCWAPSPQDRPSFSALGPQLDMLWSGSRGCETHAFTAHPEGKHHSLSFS
# method-description: Z'-LYTE enzymatic activity detection, JAK3
# Assay type: biochemical
# condition-details: test compound 30 nM; read-out: JAK3 % inhibitory rate @30 nM
observable: inhibition at 0.03 µM (%)
Numbers only here, please. The scale is %.

Some compounds with known inhibition at 0.03 µM results, for comparison:
line-notation: C=CC(=O)N(C)c1cc(Nc2ncc(Cl)c(NCCCNC(=O)c3ccc(C(C)=O)cc3)n2)ccc1F
observed-value: 82
//
line-notation: C=CC(=O)N(C)c1cc(Nc2ncc(Cl)c(NCCCNC(=O)c3ccc(OC)cc3)n2)ccc1F
observed-value: 89
//
line-notation: C=CC(=O)N(C)c1cc(Nc2ncc(Cl)c(NCCCNC(=O)c3ccc(C#N)nc3)n2)ccc1F
observed-value: 113

Which inhibition at 0.03 µM value is on record for `C=CC(=O)N(C)c1cc(Nc2ncc(Cl)c(NCCCNC(=O)c3ccccc3)n2)ccc1F` ? 82

Query: inhibition at 0.03 µM; subject: `C=CC(=O)N(C)c1cc(Nc2ncc(Cl)c(NCCCNC(=O)c3ccc(CC)cc3)n2)ccc1F` 80

Quick check: inhibition at 0.03 µM of `C=CC(=O)N(C)c1cc(Nc2ncc(C)c(NCCCNC(=O)c3ccc(C#N)cc3)n2)ccc1F` ? 107

Entry under review: `C=CC(=O)N(C)c1cc(Nc2ncc(Cl)c(NCCCNC(=O)c3ccc(O)cc3)n2)ccc1F` . Reported inhibition at 0.03 µM? 109

Tell me the measured inhibition at 0.03 µM of `C=CC(=O)N(C)c1cc(Nc2ncc(Cl)c(NCCCNC(=O)c3ccc(C(F)(F)F)cc3)n2)ccc1F` , please. 75

---

# measurement-target: JAK1 (Homo sapiens (Human))
# method-description: Z'-LYTE enzymatic activity detection, JAK1
# Type: biochemical
# condition-details: test compound 300 nM; read-out: JAK1 % inhibitory rate @300 nM
observable: inhibition at 0.3 µM (%)
Numeric answer only, unit % assumed.

// solved cases for inhibition at 0.3 µM follow
line-notation: C=CC(=O)N(C)c1cc(Nc2ncc(Cl)c(NCCCNC(=O)c3ccncc3)n2)ccc1F
inhibition at 0.3 µM (%): 14
//
line-notation: C=CC(=O)N(C)c1cc(Nc2ncc(Cl)c(NCCCNC(=O)c3ccc(C(F)(F)F)c(F)c3)n2)ccc1F
inhibition at 0.3 µM (%): 74
//
line-notation: C=CC(=O)N(C)c1cc(Nc2ncc(Cl)c(NCCCNC(=O)c3ccc(C#N)c(F)c3)n2)ccc1F
inhibition at 0.3 µM (%): 9

Bench note: what inhibition at 0.3 µM did `C=CC(=O)Nc1cc(Nc2ncc(Cl)c(NCCCNC(=O)c3ccc(F)cc3)n2)ccc1F` show? 79

---

# measurement-target: JAK1 (Homo sapiens (Human), UniProt P23458)
# Sequence (P23458 whole entry): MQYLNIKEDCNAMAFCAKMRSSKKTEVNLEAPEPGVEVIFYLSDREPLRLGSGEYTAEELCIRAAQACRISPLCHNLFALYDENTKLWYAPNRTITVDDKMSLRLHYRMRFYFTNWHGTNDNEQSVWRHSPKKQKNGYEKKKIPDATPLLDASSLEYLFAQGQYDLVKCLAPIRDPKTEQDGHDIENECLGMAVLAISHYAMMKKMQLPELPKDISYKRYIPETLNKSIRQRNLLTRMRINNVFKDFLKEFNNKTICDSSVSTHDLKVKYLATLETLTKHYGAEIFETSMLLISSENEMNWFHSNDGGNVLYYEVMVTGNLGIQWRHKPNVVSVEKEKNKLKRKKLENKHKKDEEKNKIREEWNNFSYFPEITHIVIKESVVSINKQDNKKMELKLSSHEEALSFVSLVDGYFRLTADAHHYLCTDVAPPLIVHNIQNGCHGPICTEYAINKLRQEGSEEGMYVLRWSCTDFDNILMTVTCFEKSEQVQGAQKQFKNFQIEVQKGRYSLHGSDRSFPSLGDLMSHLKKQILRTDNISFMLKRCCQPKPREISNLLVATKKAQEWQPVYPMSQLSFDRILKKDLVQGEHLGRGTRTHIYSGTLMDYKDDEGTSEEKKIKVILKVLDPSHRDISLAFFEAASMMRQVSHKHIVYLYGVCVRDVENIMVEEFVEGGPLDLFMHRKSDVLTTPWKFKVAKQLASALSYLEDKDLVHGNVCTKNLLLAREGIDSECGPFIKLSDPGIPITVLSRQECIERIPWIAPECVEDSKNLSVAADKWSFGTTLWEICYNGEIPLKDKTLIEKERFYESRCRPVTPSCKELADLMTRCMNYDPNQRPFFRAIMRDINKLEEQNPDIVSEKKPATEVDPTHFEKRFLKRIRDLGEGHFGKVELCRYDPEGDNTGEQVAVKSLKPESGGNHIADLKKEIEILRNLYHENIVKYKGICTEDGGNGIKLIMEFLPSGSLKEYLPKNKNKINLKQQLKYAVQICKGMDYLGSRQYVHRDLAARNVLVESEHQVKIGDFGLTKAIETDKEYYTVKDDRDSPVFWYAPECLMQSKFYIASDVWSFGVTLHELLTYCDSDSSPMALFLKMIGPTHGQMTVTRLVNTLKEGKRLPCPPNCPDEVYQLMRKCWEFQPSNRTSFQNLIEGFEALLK
# method-description: Z'-LYTE enzymatic activity detection, JAK1
# Format: biochemical
# condition-details: test compound 300 nM; read-out: JAK1 % inhibitory rate @300 nM
observable: inhibition at 0.3 µM (%)
Numeric answer only, unit % assumed.

compound: C=CC(=O)N(C)c1cc(Nc2ncc(Cl)c(NCCCNC(=O)C3CCN(C)CC3)n2)ccc1F [Example 27]
measurement-target: JAK1 (Homo sapiens (Human), UniProt P23458)
inhibition at 0.3 µM, %: 42
//
compound: C=CC(=O)N(C)c1cc(Nc2ncc(Cl)c(NCCCNC(=O)c3cccc(C#N)c3)n2)ccc1F [Example 95]
measurement-target: JAK1 (Homo sapiens (Human), UniProt P23458)
inhibition at 0.3 µM, %: 45
//
compound: C=CC(=O)N(C)c1cc(Nc2ncc(Cl)c(NCCCNC(=O)c3ccc(C#N)cc3)n2)ccc1F [Example 7]
measurement-target: JAK1 (Homo sapiens (Human), UniProt P23458)
inhibition at 0.3 µM, %: 56
//
compound: C=CC(=O)Nc1cc(Nc2ncc(Cl)c(NCCCNC(=O)c3ccc(C(F)(F)F)cc3)n2)ccc1F [Example 13]
measurement-target: JAK1 (Homo sapiens (Human), UniProt P23458)
inhibition at 0.3 µM, %: 35
//
compound: C=CC(=O)N(C)c1cc(Nc2ncc(Cl)c(NCCCNC(=O)c3c(F)cc(F)cc3F)n2)ccc1F [Example 36]
measurement-target: JAK1 (Homo sapiens (Human), UniProt P23458)
inhibition at 0.3 µM, %: 42
//
compound: C=CC(=O)N(C)c1cc(Nc2ncc(Cl)c(NCCCNC(=O)c3ccc(C(C)=O)cc3)n2)ccc1F [Example 111]
measurement-target: JAK1 (Homo sapiens (Human), UniProt P23458)
inhibition at 0.3 µM, %: 16
//
compound: C=CC(=O)N(C)c1cc(Nc2ncc(Cl)c(NCCCNC(=O)c3ccc(C#N)cc3F)n2)ccc1F [Example 52]
measurement-target: JAK1 (Homo sapiens (Human), UniProt P23458)
inhibition at 0.3 µM, %: 14

Can you look up the measured inhibition at 0.3 µM of C=CC(=O)N(C)c1cc(Nc2ncc(Cl)c(NCCCNC(=O)c3ccc(OC)cc3)n2)ccc1F [Example 40] for me? 4

Values compiled from patent US10011571B2.
